assay.name: photochromic response on an optical bench (sensitivity, saturation optical density, bleach rate) of imbibed test squares
Type: physicochemical
test.settings: first five (5) seconds of UV exposure, expressed per minute; 75° F. (23.9° C.)
Listing of recorded Δ OD/Min SENSITIVITY by entry.

compound="CC1Cc2c(ccc3c4c(ccc23)OC(c2ccccc2)(c2cccc(F)c2)C=C4)O1 (stereo not drawn) [Example 4]" assay_value="1.44 Δ OD/Min"

Ask: For the compound CC1Cc2c(ccc3c4c(ccc23)OC(c2ccccc2)(c2cccc(C(F)(F)F)c2)C=C4)O1 (stereo not drawn) [Example 3] , what Δ OD/Min SENSITIVITY is on record?
Reply: 1.38 Δ OD/Min

Ask: For the compound COc1cccc(C2(c3ccccc3)C=Cc3c(ccc4c5c(ccc34)OC(C)C5)O2)c1 (stereo not drawn) [Example 5] , what Δ OD/Min SENSITIVITY is on record?
Reply: 1.43 Δ OD/Min

Ask: For the compound COc1ccc2c3c(ccc2c1)OC(c1ccccc1)(c1ccccc1)C=C3 [Comparative Example 2, reference compound] , what Δ OD/Min SENSITIVITY is on record?
Reply: 1.25 Δ OD/Min

Ask: For the compound CC1Cc2c(ccc3c4c(ccc23)OC(c2ccccc2)(c2ccccc2)C=C4)O1 (stereo not drawn) [Example 2] , what Δ OD/Min SENSITIVITY is on record?
Reply: 1.35 Δ OD/Min

Ask: For the compound C1=CC(c2ccccc2)(c2ccccc2)Oc2ccc3ccccc3c21 [Comparative Example 1, 3,3-diphenyl-3H-naphtho[2,1-b]pyran, reference compound] , what Δ OD/Min SENSITIVITY is on record?
Reply: 0.87 Δ OD/Min

Numbers sourced from patent US5674432A.
